# IC50 per entry
TARGET_OF_ASSAY: Urease subunit alpha/Urease subunit beta (Helicobacter pylori (strain ATCC 700392 / 26695) (Campylobacterpylori))
Sequence (P69996 whole entry): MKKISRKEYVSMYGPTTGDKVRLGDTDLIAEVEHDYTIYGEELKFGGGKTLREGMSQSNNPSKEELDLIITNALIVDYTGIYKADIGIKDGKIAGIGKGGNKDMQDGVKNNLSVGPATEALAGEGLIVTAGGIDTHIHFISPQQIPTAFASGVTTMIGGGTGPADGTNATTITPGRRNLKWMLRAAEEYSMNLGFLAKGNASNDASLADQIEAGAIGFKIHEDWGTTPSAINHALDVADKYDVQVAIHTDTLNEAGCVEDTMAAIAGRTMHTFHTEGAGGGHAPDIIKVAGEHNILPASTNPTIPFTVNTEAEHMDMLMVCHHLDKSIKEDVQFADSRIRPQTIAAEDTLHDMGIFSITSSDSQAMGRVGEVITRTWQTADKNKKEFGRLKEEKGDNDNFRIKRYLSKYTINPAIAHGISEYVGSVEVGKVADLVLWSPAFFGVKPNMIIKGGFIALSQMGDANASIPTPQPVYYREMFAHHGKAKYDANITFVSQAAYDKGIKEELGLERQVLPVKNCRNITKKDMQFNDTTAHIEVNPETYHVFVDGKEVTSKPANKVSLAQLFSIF
Sequence (P14916 whole entry, further chain): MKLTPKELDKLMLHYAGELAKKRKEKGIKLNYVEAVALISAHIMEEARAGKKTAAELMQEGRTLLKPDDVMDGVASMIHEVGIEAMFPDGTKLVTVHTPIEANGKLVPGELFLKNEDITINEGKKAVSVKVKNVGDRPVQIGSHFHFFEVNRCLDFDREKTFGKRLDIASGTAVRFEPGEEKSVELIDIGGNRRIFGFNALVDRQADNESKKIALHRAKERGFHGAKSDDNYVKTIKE
ASSAY_SUMMARY: Inhibition of urease isolated from Helicobacter pylori ATCC 43504 assessed as ammonia production incubated for 1.5 hrs prior to testing by indophenol method

COMPOUND_STRUCTURE | IC50
COc1ccc(NCc2ccc(Cl)cc2)cc1 | > 500 µM
COc1ccc(CNc2ccc(Cl)cc2)cc1OC | > 500 µM
COc1ccc(NCc2ccc(N(C)C)cc2)cc1 | > 500 µM
Clc1ccc(NCc2ccc3c(c2)OCO3)cc1 | > 500 µM
CN(C)c1ccc(CNc2ccc(Cl)cc2)cc1 | > 500 µM
